- systemName: L-SIGN (Homo sapiens, UniProt Q9H2X3)
- Construct: L-SIGN 3G-ECD (amino acids 78 to 399); made in house
- Sequence (Q9H2X3 78-399): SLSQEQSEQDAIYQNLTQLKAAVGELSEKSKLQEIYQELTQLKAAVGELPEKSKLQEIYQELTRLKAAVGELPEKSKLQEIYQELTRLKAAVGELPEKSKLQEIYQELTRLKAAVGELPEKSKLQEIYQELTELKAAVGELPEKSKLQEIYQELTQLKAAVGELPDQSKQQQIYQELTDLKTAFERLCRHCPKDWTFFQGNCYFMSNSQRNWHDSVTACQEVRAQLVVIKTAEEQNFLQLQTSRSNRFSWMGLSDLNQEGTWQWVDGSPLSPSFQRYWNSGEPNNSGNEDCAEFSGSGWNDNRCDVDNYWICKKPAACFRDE
- methodNotes: SPR binding inhibition (competition) assay on immobilized SARS-CoV-2 Spike surface, L-SIGN
- measurementContext: L-SIGN vs DC-SIGN, SPR inhibition on Spike surface
Grouping by measured Selectivity = (IC50 [DC-SIGN]/IC50 [L-SIGN]) is done with the following cut points: low (below 10), medium (10 to below 60), high (60 or more)

O=c1ccnc(NCc2cn([C@@H]3[C@@H](OCCCl)O[C@H](CO)[C@@H](O)[C@@H]3O)nn2)[nH]1 = medium

Ask: Pick a category. Item: COc1ccc2[nH]c(NCc3cn([C@@H]4[C@@H](OCCCl)O[C@H](CO)[C@@H](O)[C@@H]4O)nn3)nc2c1
Result: medium

Ask: Categorize the following entry: OC[C@H]1O[C@H](OCCCl)[C@@H](n2cc(CNc3nc4ccccc4[nH]3)nn2)[C@@H](O)[C@@H]1O
Result: medium
